Test: qHTS of pediatric cancer cell lines to identify multiple opportunities for drug repurposing: Confirmatory screen for A673 cells (AID 1347110);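 further: cells exposed to compound for 48 h before the viability read; nearly all actives have a fitted effect of over 65% in size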; further: potency means the concentration at half of the fitted maximal effect
Settings: A673 Ewing sarcoma cell viability; series mostly up to 45.9 µM
Inconclusive results are not listed. Activity calls are given as the source filed them. The call rests on the fitted dose curve; in most records, active means well fitted cell-killing curve with a large enough effect; inconclusive means small, poorly fitted or top-dose-only effect; inactive means flat fitted curve, though single readings scatter.
parameter: Potency

Before answering, review these 10 worked examples.
molecule	Potency
CC[C@@H]1C=C(C)C[C@H](C)C[C@H](OC)[C@H]2O[C@@](O)(C(=O)C(=O)N3CCCC[C@@H]3C(=O)O[C@H](C(C)=C[C@@H]3CC[C@H](Cl)[C@H](OC)C3)[C@H](C)[C@@H](O)CC1=O)[C@H](C)C[C@H]2OC	inactive
CC(C)n1nc(-c2ccc3oc(N)nc3c2)c2c(N)ncnc21	0.147 µM (active)
COc1cc2nc(-c3ccc(N4CCN(C)CC4)cc3)nc(NCCN3CCOCC3)c2cc1OC	0.208 µM (active)
O=C(NCc1ccncc1)C12C[C@H]3C[C@@H](C1)CC(c1ccc(Cl)cc1)(C3)C2	9.27 µM (active)
CC1(C)S[C@H]2[C@H](NC(=O)[C@@H](N)c3ccc(O)cc3)C(=O)N2[C@@H]1C(=O)O	inactive
O=C(Nc1cccc(Br)c1)c1cccc(S(=O)(=O)N2CCCCCC2)c1	inactive
CN(C)C1CCN(C(=O)c2ccc(NC(=O)Nc3nc(N4CCOCC4)nc(N4CCOCC4)n3)cc2)CC1	0.0737 µM (active)
COc1ccc(-c2coc3cc(O)cc(O)c3c2=O)cc1	0.117 µM (active)
CO[C@H]1C(=O)[C@]2(C)[C@@H](OC)C[C@H]3OC[C@@]3(OC(C)=O)[C@H]2[C@H](OC(=O)c2ccccc2)[C@]2(O)C[C@H](OC(=O)[C@H](O)[C@@H](NC(=O)OC(C)(C)C)c3ccccc3)C(C)=C1C2(C)C	0.0059 µM (active)
C=C1C(=O)[C@@]23C(CC[C@@H]1[C@H]2O)[C@@]12CO[C@]3(O)[C@@H](O)[C@@H]1C(C)(C)CC[C@@H]2O (stereo partly specified)	9.27 µM (active)

Item: Nc1ncnc2c1ncn2[C@@H]1O[C@@H](CO)[C@H](O)[C@H]1O | Potency: inactive

Item: CC1(C)O[C@H]2C[C@@H]3[C@H]4CCC5=CC(=O)C=C[C@]5(C)[C@@]4(F)[C@@H](O)C[C@]3(C)[C@]2(C(=O)CO)O1 | Potency: inactive

Item: O=C(O)c1ccc(-c2c[nH]c3ncc(-c4ccccc4)cc23)cc1C1CCCC1 | Potency: inactive

Item: O=C1c2ccccc2-[n+]2ccc3c([nH]c4ccccc43)c21 | Potency: 2.93 µM (active)

###

Experiment: Quantitative High-Throughput drug screen in 47 multiple myeloma cell lines against the NCATS MIPE library collection: KMS28BM_JCRB cell viability assay (AID 1919874); further: nearly all actives have a fitted effect of over 35% in size
Conditions: CellTiter-Glo ATP, 48 h; series mostly up to 45.8 µM
Results filed as inconclusive are left out. Active and inactive are the calls of the source. Calls come from the whole dose curve; as a rule, active = well fitted cell-killing curve with a large enough effect; inconclusive = small, poorly fitted or top-dose-only effect, or effect the other way; inactive = no such curve, though single readings can be large or run the other way.
Write down the outcome that applies. Available outcomes: True = active, False = inactive

Which outcome was entered for the molecule CS(=O)(=O)N(Cc1ccco1)CC(O)Cn1c2ccccc2c2ccccc21 (centres undefined) in this test?
True

Which outcome was entered for the molecule Cc1nc(N)sc1-c1ccnc(Nc2ccc(N3CCOCC3)cc2)n1 in this test?
True

Which outcome was entered for the molecule O=C1NC(=O)C(=Cc2cccc(C(F)(F)F)c2)S1 in this test?
False

Which outcome was entered for the molecule N[C@@]1(C(=O)O)CS(=O)(=O)[C@H]2[C@H](C(=O)O)[C@H]21 in this test?
False

Which outcome was entered for the molecule O=C1c2ccccc2-[n+]2ccc3c([nH]c4ccccc43)c21 in this test?
True

Which outcome was entered for the molecule O=c1c(-c2ccc(O)cc2)coc2cc(O)ccc12 in this test?
False

Which outcome was entered for the molecule Cc1cc(OCCCc2c(C(=O)O)n(Cc3cccnc3)c3c(-c4c(COc5ccc(N6CCN([S+](C)(=O)[O-])CC6)cc5)nn(C)c4C)cccc23)cc(C)c1Cl in this test?
True

Which outcome was entered for the molecule Cc1nnc(C(C)C)n1C1C[C@H]2CC[C@@H](C1)N2CC[C@H](NC(=O)C1CCC(F)(F)CC1)c1ccccc1 (some centres undefined) in this test?
False

Which outcome was entered for the molecule CNC1CCC(N(Cc2cccc(-c3ccncc3)c2)C(=O)c2sc3c(F)ccc(F)c3c2Cl)CC1 (centres undefined) in this test?
True
